# testedTarget: TBK1 (Homo sapiens (Human))
# Sequence (Q9UHD2 whole entry): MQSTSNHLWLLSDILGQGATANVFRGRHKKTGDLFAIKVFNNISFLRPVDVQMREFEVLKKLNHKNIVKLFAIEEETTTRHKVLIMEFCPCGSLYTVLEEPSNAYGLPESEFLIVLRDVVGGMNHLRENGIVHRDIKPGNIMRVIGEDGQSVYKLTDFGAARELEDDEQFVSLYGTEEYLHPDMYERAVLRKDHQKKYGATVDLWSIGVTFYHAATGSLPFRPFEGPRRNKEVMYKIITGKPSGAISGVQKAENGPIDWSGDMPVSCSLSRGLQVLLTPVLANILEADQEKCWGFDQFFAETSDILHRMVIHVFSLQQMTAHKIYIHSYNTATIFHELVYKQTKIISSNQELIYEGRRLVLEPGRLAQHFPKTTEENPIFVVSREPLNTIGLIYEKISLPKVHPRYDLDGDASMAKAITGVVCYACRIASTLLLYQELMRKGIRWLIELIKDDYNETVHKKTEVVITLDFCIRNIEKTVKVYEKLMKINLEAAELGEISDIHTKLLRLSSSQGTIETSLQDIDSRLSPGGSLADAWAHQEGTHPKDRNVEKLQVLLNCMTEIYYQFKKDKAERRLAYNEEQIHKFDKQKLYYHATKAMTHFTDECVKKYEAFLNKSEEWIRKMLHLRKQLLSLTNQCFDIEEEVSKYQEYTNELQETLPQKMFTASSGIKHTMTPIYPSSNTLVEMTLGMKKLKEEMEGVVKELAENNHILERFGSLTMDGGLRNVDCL
# assayOverview: TR-FRET kinase assay, TBK1
# appliedConditions: read-out: TBK1-IC50; full length recombinant TBK1 2.5 nM, 2x Km ATP, 1 μM peptide, 240 min at 25° C.; geometric mean of minimum four determinations
measureName: IC50 (nM)

[
  {
    "sampleSmiles": "N#Cc1cc(-c2ncnc3[nH]c(-c4ccc(OCCN5CCCC5)cc4)cc23)ccc1OC1CCN(C(=O)CO)CC1",
    "testedTarget": "TBK1 (Homo sapiens (Human))",
    "unitOfMeasurement": "nM",
    "IC50": 1.01
  },
  {
    "sampleSmiles": "Cc1cc(N2CCOCC2)ccc1-c1cc2c(-c3ccc(OC4CCN(C(=O)CO)CC4)c(C#N)c3)ncnc2[nH]1",
    "testedTarget": "TBK1 (Homo sapiens (Human))",
    "unitOfMeasurement": "nM",
    "IC50": 1.28
  },
  {
    "sampleSmiles": "N#Cc1cc(-c2ncnc3[nH]c(-c4ccc(Cn5ccnc5)cc4)cc23)ccc1OC1CCOCC1",
    "testedTarget": "TBK1 (Homo sapiens (Human))",
    "unitOfMeasurement": "nM",
    "IC50": 5.13
  },
  {
    "sampleSmiles": "CC(C)(O)c1ccc(-c2cc3c(-c4ccc(OC5CCOCC5)c(C#N)c4)ncnc3[nH]2)cn1",
    "testedTarget": "TBK1 (Homo sapiens (Human))",
    "unitOfMeasurement": "nM",
    "IC50": 2.77
  },
  {
    "sampleSmiles": "N#Cc1cc(-c2ccnc3[nH]c(-c4cc5ccccc5[nH]4)cc23)ccc1OC1CCOCC1",
    "testedTarget": "TBK1 (Homo sapiens (Human))",
    "unitOfMeasurement": "nM",
    "IC50": 32.5
  }
]

(A) N#Cc1cc(-c2ccnc3[nH]c(-c4ccc5[nH]ccc5c4)cc23)ccc1OC1CCOCC1
(B) COc1cc(-c2cc3c(-c4ccc(O[C@H]5CCNC[C@H]5F)c(C#N)c4)ncnc3[nH]2)ccc1N1CCN(C2COC2)CC1
Lab note: record which item had the higher IC50, A or B . Kindly give the label for the entry you pick.
A

Reference for the values: patent US10072001B2
